Entry source: PubChem BioAssay AID1645857

# Tested On: Ubiquitin carboxyl-terminal hydrolase 28 (Homo sapiens) (UniProt Q96RU2)
# Sequence (Q96RU2 whole entry, looked up): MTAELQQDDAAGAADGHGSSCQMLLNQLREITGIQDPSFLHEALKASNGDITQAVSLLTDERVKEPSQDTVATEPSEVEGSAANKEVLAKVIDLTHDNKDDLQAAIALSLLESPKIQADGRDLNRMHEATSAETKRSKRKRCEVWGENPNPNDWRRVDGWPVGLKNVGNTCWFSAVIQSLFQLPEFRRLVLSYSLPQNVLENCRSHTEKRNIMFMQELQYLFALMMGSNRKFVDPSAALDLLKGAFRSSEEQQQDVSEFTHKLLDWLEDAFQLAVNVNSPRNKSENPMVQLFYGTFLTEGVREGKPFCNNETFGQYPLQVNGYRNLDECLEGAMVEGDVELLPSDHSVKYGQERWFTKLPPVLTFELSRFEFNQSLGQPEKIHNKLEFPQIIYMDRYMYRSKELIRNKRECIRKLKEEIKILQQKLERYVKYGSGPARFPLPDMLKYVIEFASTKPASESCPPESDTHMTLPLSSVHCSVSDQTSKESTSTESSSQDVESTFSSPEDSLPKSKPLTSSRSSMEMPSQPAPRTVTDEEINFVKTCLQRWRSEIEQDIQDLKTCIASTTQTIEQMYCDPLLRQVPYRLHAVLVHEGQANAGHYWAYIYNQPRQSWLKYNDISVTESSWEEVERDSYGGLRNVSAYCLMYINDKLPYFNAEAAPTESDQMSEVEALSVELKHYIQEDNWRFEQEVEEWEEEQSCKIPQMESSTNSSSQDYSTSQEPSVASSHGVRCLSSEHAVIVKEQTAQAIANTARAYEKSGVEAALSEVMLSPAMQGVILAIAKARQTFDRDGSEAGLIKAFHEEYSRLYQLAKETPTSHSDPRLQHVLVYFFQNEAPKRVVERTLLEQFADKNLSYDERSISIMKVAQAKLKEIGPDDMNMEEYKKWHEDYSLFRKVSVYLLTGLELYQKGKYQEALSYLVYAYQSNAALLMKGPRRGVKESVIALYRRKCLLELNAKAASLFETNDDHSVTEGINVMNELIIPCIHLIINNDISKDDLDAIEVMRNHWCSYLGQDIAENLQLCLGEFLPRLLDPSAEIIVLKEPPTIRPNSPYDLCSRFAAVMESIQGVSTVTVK
# Experimental Protocol: inhibitors of human USP28 deubiquitinase (AID 1645857)
# Experimental Conditions: purified USP28, Ub-rhodamine cleavage fluorescence, 30 min; at 25 µM
In all, about 47,000 compounds went through this assay and about 1,400 (3%) were called active. Cut-off read from the data, not from the text of the source: active = inhibition above about 30%; inactive = the rest. This excerpt belongs to a sample that is enriched for actives.
Choose one outcome from this list and give only that: active, inactive

Kindly provide the recorded test outcome for the following compound: `Cc1ccc(CNC(=O)CCCn2c(=O)c3sccc3n(CC(=O)OCc3ccccc3)c2=O)cc1`
active

Kindly provide the recorded test outcome for the following compound: `Cc1noc(-c2cccn(Cc3cc(F)ccc3F)c2=O)n1`
inactive

Kindly provide the recorded test outcome for the following compound: `O=C(Cn1cnc2c(sc3ccccc32)c1=O)Nc1ccc2c(c1)OCCO2`
active

Kindly provide the recorded test outcome for the following compound: `CN(c1ccccc1)c1nc(=O)n(CC(=O)Nc2ccc3c(c2)OCCO3)c2ccccc12`
active

Kindly provide the recorded test outcome for the following compound: `N#Cc1ccccc1Cn1c(=O)n(CCCC(=O)NCc2ccc(F)cc2)c(=O)c2ccccc21`
inactive

###

# Tested On: Ubiquitin carboxyl-terminal hydrolase 28 (Homo sapiens)
# Experimental Protocol: inhibitors of human USP28 deubiquitinase (AID 1645857)
# Experimental Conditions: purified USP28, Ub-rhodamine cleavage fluorescence, 30 min; at 25 µM
Hit rate of the full screen: of about 47,000 compounds, about 1,400 (3%) were called active. Rule as the data show it: active = inhibition above about 30%; inactive = the rest. The entries come from a sample that favours actives as a whole.
Choose one outcome from this list and give only that: true for active, false for inactive

Kindly provide the recorded test outcome for the following compound: CCc1ccccc1NC(=O)N1CCCC1c1ccnn1CC (configuration not stated)
false

Kindly provide the recorded test outcome for the following compound: `Cc1cccc(NC(=O)Nc2ccc3c(c2)N(S(=O)(=O)c2ccccc2)CC3)c1C`
false

Kindly provide the recorded test outcome for the following compound: Cc1ccc(CC(=O)Nc2nnc(C3CC(=O)N(c4ccc(C)c(C)c4)C3)s2)cc1 (configuration not stated)
false

Kindly provide the recorded test outcome for the following compound: O=C(NCC(c1cccnc1)N1CCc2ccccc2C1)c1cccc(F)c1 (configuration not stated)
false

Kindly provide the recorded test outcome for the following compound: `Cc1noc(CNC(=O)c2cc(-c3ccco3)on2)n1`
false

Kindly provide the recorded test outcome for the following compound: `Cc1ccc(N2CCCS2(=O)=O)cc1NC(=O)Cc1ccc(Cl)cc1`
true

Kindly provide the recorded test outcome for the following compound: `CCOc1ccccc1OC(=O)c1cc(-c2cc(OC)c(OC)c(OC)c2)nc2ccccc12`
false

Kindly provide the recorded test outcome for the following compound: `Cc1c(-c2noc(-c3cccc(N(C)C)c3)n2)nnn1Cc1cccc(F)c1`
false

Kindly provide the recorded test outcome for the following compound: `CN1CCC(N(C)C(=O)c2ccc(Cl)c(S(=O)(=O)Nc3ccccc3C(=O)N(C)C3CCN(C)CC3)c2)CC1`
false

Kindly provide the recorded test outcome for the following compound: `Cc1ccc(Cl)cc1NC(=O)N1CCc2nc(N3CCCCC3)ncc2C1`
false

Kindly provide the recorded test outcome for the following compound: `Cc1ccc(-c2cc3n(n2)CCCN(C(=O)c2ccccn2)C3)cc1`
false

Kindly provide the recorded test outcome for the following compound: `Cc1c(C(=O)NC2CCCCC2)oc2ccccc12`
false

Kindly provide the recorded test outcome for the following compound: COc1cccc(C2C(C(=O)Nc3ccccc3C)=C(C)Nc3ncnn32)c1OCc1ccccc1 (configuration not stated)
false

Kindly provide the recorded test outcome for the following compound: CN1CC(=O)N(C2CCCNC2)Cc2c(NC3CCc4ccccc43)ncnc21 (configuration not stated)
true

Kindly provide the recorded test outcome for the following compound: `CCc1nc(SCC(=O)Nc2cccc3ccccc23)c2oc3ccccc3c2n1`
false

Kindly provide the recorded test outcome for the following compound: COc1ccc(NC(=O)C2=C(C)Nc3ncnn3C2c2cccc(OCc3ccc(F)cc3)c2)c(OC)c1 (configuration not stated)
true

Kindly provide the recorded test outcome for the following compound: c1ccc(-c2csc3ncnc(NC4CCCc5ccccc54)c23)cc1 (configuration not stated)
false

Kindly provide the recorded test outcome for the following compound: O=C(c1ccccc1F)N1CCCC1c1nccnc1-c1ncc[nH]1 (configuration not stated)
false

Kindly provide the recorded test outcome for the following compound: O=CNC1CC2(CCCCC2)Oc2ccccc21 (configuration not stated)
false

Kindly provide the recorded test outcome for the following compound: COc1ccccc1NC(=O)C1=C(C)Nc2ncnn2C1c1ccc(C)o1 (configuration not stated)
false

Kindly provide the recorded test outcome for the following compound: `O=C(CCc1csc(NC(=O)c2ccc(=O)[nH]c2)n1)NCCc1c[nH]c2ccccc12`
false

Kindly provide the recorded test outcome for the following compound: `O=C1CO[C@H]2CN(Cc3ncc[nH]3)C[C@H]2N1c1ccccc1`
false
